Taken from patent US20260285853A1.

- System: MYB mRNA
- Assay remarks: Gene panel canonical junction qPCR assay, decrease in CJ mRNA, Table 3
- Type: cell-based
- Test parameters: decrease in CJ mRNA levels, canonical junction qPCR, gene panel
Readout label: IC50

molecule="COc1c(NC(=O)c2cc(F)c(N3CCC(NC4CC4)CC3)c3cn(C)nc23)cn2cc(C)nc2c1F [Compound 709]" result="100 to 1000 nM"
molecule="Cc1cc2c(N3CCC(NC4CC4)CC3)ccc(C(=O)Nc3cc(CNS(C)(=O)=O)c4nn(C)cc4c3)n2n1 [Compound 822]" result="100 to 1000 nM"
molecule="Cc1cn2nc(NC(=O)c3ccc(N4CCC(NC5CC5)CC4)c4cn(C)nc34)cc(CN)c2n1 [Compound 870]" result="> 10000 nM"
molecule="Cn1cc2cc(NC(=O)c3ccc(N4CCC(NC5CC5)CC4)c4cn(C)nc34)cc(Cn3nccn3)c2n1 [Compound 824]" result="1000 to 10000 nM"
molecule="Cc1cn2cc(NC(=O)c3ccc(N4CCC(NC5CC5)CC4)c4cn(C)nc34)nc2c(CCNS(C)(=O)=O)n1 [Compound 778]" result="> 10000 nM"

---

- System: MYB mRNA
- Assay remarks: Gene panel canonical junction qPCR assay, decrease in CJ mRNA, Table 3
- Format: cell-based
- Test parameters: decrease in CJ mRNA levels, canonical junction qPCR, gene panel
pIC50: −log10 of the molar value.
Readout label: pIC50

compound="COc1c(NC(=O)c2c(F)cc(N3CCNCC3)c3cn[nH]c23)cn2cc(C)nc2c1F [Compound 607]" target_entity="MYB mRNA" result="> 7.00"
compound="CC(=O)Nc1nc2c(C(=O)Nc3cc(F)c4nn(C)cc4c3)ccc(N3C[C@H](C)N[C@@H](C)C3)c2s1 [Compound 724]" target_entity="MYB mRNA" result="> 7.00"
compound="CC(c1cc(NC(=O)c2ccc(N3CCC(NC4CC4)CC3)c3cn(C)nc23)cc2cn(C)nc12)S(=O)(=O)N(C)C (centres unmarked) [Compound 868]" target_entity="MYB mRNA" result="< 5.00"
compound="Cc1cn2c(N3CCC(NC4CC4)CC3)ccc(C(=O)Nc3cc(CNS(C)(=O)=O)c4nn(C)cc4c3)c2n1 [Compound 839]" target_entity="MYB mRNA" result="6.00 to 7.00"
compound="Cc1cn2cc(NC(=O)c3ccc(NC(=O)C4CCCN4)c4[nH]cnc34)cc(F)c2n1 (centres unmarked) [Compound 613]" target_entity="MYB mRNA" result="5.00 to 6.00"
compound="COc1c(NC(=O)c2ccc(N3CCC(NC4CC4)CC3)c3cn(C)nc23)cc2cn(C)nc2c1CNS(C)(=O)=O [Compound 819]" target_entity="MYB mRNA" result="5.00 to 6.00"
compound="Cn1cc2cc(NC(=O)c3ccc(N4CCC(NC5CC5)CC4)c4cn(C)nc34)c(O)c(CNS(C)(=O)=O)c2n1 [Compound 867]" target_entity="MYB mRNA" result="< 5.00"
compound="COc1nc2c(C(=O)Nc3cc(CO)c4nn(C)cc4c3)ccc(N3C[C@H](C)N[C@@H](C)C3)c2s1 [Compound 783]" target_entity="MYB mRNA" result="> 7.00"
